- STUDY_SYSTEM: GST-tagged KRAS-G12V (2-169) (Homo sapiens, UniProt P01116, G12V)
- Sequence (P01116 2-169 isoform P01116-2 G12V): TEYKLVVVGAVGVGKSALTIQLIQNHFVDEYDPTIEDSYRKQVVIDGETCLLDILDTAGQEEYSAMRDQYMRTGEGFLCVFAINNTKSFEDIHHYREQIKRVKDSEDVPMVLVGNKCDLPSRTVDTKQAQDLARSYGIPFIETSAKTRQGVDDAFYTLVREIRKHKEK
- ASSAY_TEXT: Nucleotide exchange assay (NEA), SOS-mediated, HTRF, KRAS G12V
- CONDITION_INFO: Table 4; IC50 extracted at 90 min; 80 nM SOS
pIC50: −log10 of the molar value.
Measured pIC50 accompanies every entry in the list below.
PROPERTY_MEASURED: pIC50

MOLECULE | STUDY_SYSTEM | PROPERTY_MEASURED | ASSAY_VALUE
N#Cc1c(N)sc2c1C1(CN(c3nc(OC[C@@]45CCCN4C[C@H](F)C5)nc(N(CCO)CC4(C#N)CC4)n3)C1)SC2 [Compound 239] | GST-tagged KRAS-G12V (2-169) (Homo sapiens, UniProt P01116, G12V) | pIC50 | > 8.00
N#Cc1c(N)sc2c1C1(CN(c3nc(OC[C@@]45CCCN4C[C@H](F)C5)nc(N(Cc4cccnc4N)C4COC4)n3)C1)SC2 [Compound 217] | GST-tagged KRAS-G12V (2-169) (Homo sapiens, UniProt P01116, G12V) | pIC50 | 6.00 to 7.00
CC(CC#N)N(C)c1nc(OC[C@@]23CCCN2C[C@H](F)C3)nc(N2CC3(C2)SCc2sc(N)c(C#N)c23)n1 (stereo partly shown) [Compound 249] | GST-tagged KRAS-G12V (2-169) (Homo sapiens, UniProt P01116, G12V) | pIC50 | > 8.00
C[C@@]1(O)CCCN(c2nc(OC[C@@]34CCCN3C[C@H](F)C4)nc(N3CC4(C3)c3c(sc(N)c3C#N)CS4(=O)=O)n2)C1 (racemic) [Compound 113] | GST-tagged KRAS-G12V (2-169) (Homo sapiens, UniProt P01116, G12V) | pIC50 | 6.00 to 7.00
N#Cc1c(N)sc2c1C1(CC2)CN(c2nc(OC[C@@]34CCCN3C[C@H](F)C4)nc(N3CCc4noc(N)c4C3)n2)C1 [Compound 31] | GST-tagged KRAS-G12V (2-169) (Homo sapiens, UniProt P01116, G12V) | pIC50 | 6.00 to 7.00
C[C@@]1(O)CCCN(c2nc(OC[C@@]34CCCN3C[C@H](F)C4)nc(N3CC4(C3)c3c(sc(N)c3C#N)CC4F)n2)C1 (stereo partly shown) [Compound 71] | GST-tagged KRAS-G12V (2-169) (Homo sapiens, UniProt P01116, G12V) | pIC50 | 7.00 to 8.00
N#Cc1c(N)sc2c1C1(CC2)CCN(c2nc(OCC3(CN4CCOCC4)CC3)nc(N3C[C@H]4CC[C@@H](C3)N4)n2)C1 (stereo partly shown) [Compound 9] | GST-tagged KRAS-G12V (2-169) (Homo sapiens, UniProt P01116, G12V) | pIC50 | 4.70 to 6.00
CN(Cc1nsnc1N)c1nc(OC[C@@]23CCCN2C[C@H](F)C3)nc(N2CC3(CCc4sc(N)c(C#N)c43)C2)n1 [Compound 166] | GST-tagged KRAS-G12V (2-169) (Homo sapiens, UniProt P01116, G12V) | pIC50 | > 8.00
CC(c1cncnc1O)N(C)c1nc(OC[C@@]23CCCN2C[C@H](F)C3)nc(N2CC3(CCc4sc(N)c(C#N)c43)C2)n1 (stereo partly shown) [Compound 155] | GST-tagged KRAS-G12V (2-169) (Homo sapiens, UniProt P01116, G12V) | pIC50 | 4.70 to 6.00
CCN(c1nc(OC[C@@]23CCCN2C[C@H](F)C3)nc(N2CC3(C2)SCc2sc(N)c(C#N)c23)n1)[C@H](C)C(N)=O [Compound 235] | GST-tagged KRAS-G12V (2-169) (Homo sapiens, UniProt P01116, G12V) | pIC50 | > 8.00
CCN(c1nc(OC[C@]23CC[C@H](CN(C)C2)N3)nc(N2CC3(C2)SCc2sc(N)c(C#N)c23)n1)[C@H](C)c1cccnc1N [Compound 214] | GST-tagged KRAS-G12V (2-169) (Homo sapiens, UniProt P01116, G12V) | pIC50 | > 8.00
C[C@H](c1cccnc1N)N(C)c1nc(OC[C@@]23CCCN2C[C@H](F)C3)nc(N2CCC3(CCCc4sc(N)c(C#N)c43)C2=O)n1 (single isomer, unassigned) [Compound 175B] | GST-tagged KRAS-G12V (2-169) (Homo sapiens, UniProt P01116, G12V) | pIC50 | > 8.00
N#Cc1c(N)sc2c1C1(CC2)CN(c2nc(OCC3(C#N)CC3)nc(OCC3(CN4CCOCC4)CC3)n2)C1 [Compound 38] | GST-tagged KRAS-G12V (2-169) (Homo sapiens, UniProt P01116, G12V) | pIC50 | > 8.00
N#CNC1CCCN(c2nc(OC[C@@]34CCCN3C[C@H](F)C4)nc(N3CC4(CCc5sc(N)c(C#N)c54)C3)n2)C1 (stereo partly shown) [Compound 33] | GST-tagged KRAS-G12V (2-169) (Homo sapiens, UniProt P01116, G12V) | pIC50 | > 8.00
CC(c1nccnc1N)N(C)c1nc(OC[C@@]23CCCN2C[C@H](F)C3)nc(N2CC3(C2)SCc2sc(N)c(C#N)c23)n1 (stereo partly shown) [Compound 134] | GST-tagged KRAS-G12V (2-169) (Homo sapiens, UniProt P01116, G12V) | pIC50 | > 8.00
CC(c1nccnc1N)N(CCO)c1nc(OC[C@@]23CCCN2C[C@H](F)C3)nc(N2CC3(CCc4sc(N)c(C#N)c43)C2)n1 (stereo partly shown) [Compound 124] | GST-tagged KRAS-G12V (2-169) (Homo sapiens, UniProt P01116, G12V) | pIC50 | > 8.00
N#CCC1C=C(F)CN(c2nc(OCC3(CN4CCOCC4)CC3)nc(N3CC4(CCc5sc(N)c(C#N)c54)C3)n2)C1 (stereo not shown) [Compound 65] | GST-tagged KRAS-G12V (2-169) (Homo sapiens, UniProt P01116, G12V) | pIC50 | 7.00 to 8.00
C[C@H](c1cccnc1N)N(CC(F)F)c1nc(OCC2(CN(C)C)CC2(F)F)nc(N2CC3(C2)SCc2sc(N)c(C#N)c23)n1 (stereo partly shown) [Compound 220] | GST-tagged KRAS-G12V (2-169) (Homo sapiens, UniProt P01116, G12V) | pIC50 | > 8.00
N#Cc1c(N)sc2c1C1(CC2)CN(c2nc(N[C@@H]3COC[C@@H]3O)nc(OC[C@@]34CCCN3C[C@H](F)C4)n2)C1 (racemic) [Compound 103] | GST-tagged KRAS-G12V (2-169) (Homo sapiens, UniProt P01116, G12V) | pIC50 | 6.00 to 7.00
CC(c1ccccc1N)N(C)c1nc(OC[C@@]23CCCN2C[C@H](F)C3)nc(N2CC3(CCc4sc(N)c(C#N)c43)C2)n1 (stereo partly shown) [Compound 121] | GST-tagged KRAS-G12V (2-169) (Homo sapiens, UniProt P01116, G12V) | pIC50 | ≤ 4.70
CN(c1nc(OC[C@@]23CCCN2C[C@H](F)C3)nc(N2CC3(C2)SCc2sc(N)c(C#N)c23)n1)[C@H]1[C@H]2CN[C@@H]1C2 [Compound 257] | GST-tagged KRAS-G12V (2-169) (Homo sapiens, UniProt P01116, G12V) | pIC50 | 7.00 to 8.00
CC(c1nonc1N)N(C)c1nc(OC[C@@]23CCCN2C[C@H](F)C3)nc(N2CC3(CCc4sc(N)c(C#N)c43)C2)n1 (stereo partly shown) [Compound 156] | GST-tagged KRAS-G12V (2-169) (Homo sapiens, UniProt P01116, G12V) | pIC50 | > 8.00
N#Cc1c(N)sc2c1C1(CC2)CN(c2nc(OC[C@@]34CCCN3C[C@H](F)C4)nc(N3CCCCC3C(N)=O)n2)C1 (stereo partly shown) [Compound 40] | GST-tagged KRAS-G12V (2-169) (Homo sapiens, UniProt P01116, G12V) | pIC50 | 4.70 to 6.00
CCN(c1nc(OC[C@@]23CCCN2C[C@H](F)C3)nc(N2CC3(C2)SCc2sc(N)c(C#N)c23)n1)C1(C(N)=O)CC1 [Compound 234] | GST-tagged KRAS-G12V (2-169) (Homo sapiens, UniProt P01116, G12V) | pIC50 | 7.00 to 8.00
CC(c1nccnc1N)N(C)c1nc(OC[C@@]23CCCN2C[C@H](F)C3)nc(N2CC3(CCc4sc(N)c(C#N)c43)C2)n1 (single isomer, unassigned) [Compound 116A] | GST-tagged KRAS-G12V (2-169) (Homo sapiens, UniProt P01116, G12V) | pIC50 | > 8.00
